tested on: NCI-H358 (K-Ras G12C); assay: CellTiter-Glo cell viability assay, 5-day treatment; type: cell-based; details: Homo sapiens, NCI-H358, 120 h, 5-day treatment; read-out: H358 Cell Viability assay data (K-Ras G12C, IC50)
reported_property: IC50

Task: Report IC50 on NCI-H358 (K-Ras G12C) for this entry: CCn1c(-c2cccnc2[C@H](C)OC)c2c3cc(ccc31)-c1csc(n1)C[C@H](NC(=O)[C@H](C(C)C)N(C)C(=O)N(C)C[C@@H]1CCCN1C)C(=O)N1CCC[C@H](N1)C(=O)OCC(C)(C)C2 [Example A504]
Result: 100 to 1000 nM

Task: Report IC50 on NCI-H358 (K-Ras G12C) for this entry: CCn1c(-c2cccnc2[C@H](C)OC)c2c3cc(ccc31)-c1cc(O)cc(c1)C[C@H](NC(=O)[C@H](C(C)C)N(C)C(=O)[C@H]1CCN[C@H]1C)C(=O)N1CCC[C@H](N1)C(=O)OCC(C)(C)C2 [Example A127]
Result: 1000 to 10000 nM

Task: Report IC50 on NCI-H358 (K-Ras G12C) for this entry: CCn1c(-c2cccnc2[C@H](C)OC)c2c3cc(ccc31)-c1cc(O)cc(c1)C[C@H](NC(=O)[C@H](C(C)C)N(C)C(=O)OC1CC1)C(=O)N1CCC[C@H](N1)C(=O)OCC(C)(C)C2 [Example A174]
Result: 100 to 1000 nM

Task: Report IC50 on NCI-H358 (K-Ras G12C) for this entry: CCn1c(-c2cccnc2[C@H](C)OC)c2c3cc(ccc31)-c1csc(n1)C[C@H](NC(=O)[C@H](C(C)C)N(C)C(=O)N1CC[C@@H]1CN(C)C)C(=O)N1CCC[C@H](N1)C(=O)OCC(C)(C)C2 [Example A502]
Result: 10 to 100 nM

----------
Give measured IC50 for each item. Keep answers brief.
target: KRAS G13D (Homo sapiens, UniProt P01116+P62937, G13D); assay: Disruption of BRAF RBD interaction with Ras (FRET / MOA assay, with Cyclophilin A); assay type: biochemical; conditions: KRAS G13D; read-out: KRAS G13D FRET data IC50
Sequence (P01116 1-169 isoform P01116-2 G13D limits assumed): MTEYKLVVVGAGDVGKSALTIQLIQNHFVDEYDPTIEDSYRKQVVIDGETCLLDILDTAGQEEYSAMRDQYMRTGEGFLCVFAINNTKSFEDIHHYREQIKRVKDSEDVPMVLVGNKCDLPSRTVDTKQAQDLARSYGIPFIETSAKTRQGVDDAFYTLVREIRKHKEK
Sequence (P62937 whole entry): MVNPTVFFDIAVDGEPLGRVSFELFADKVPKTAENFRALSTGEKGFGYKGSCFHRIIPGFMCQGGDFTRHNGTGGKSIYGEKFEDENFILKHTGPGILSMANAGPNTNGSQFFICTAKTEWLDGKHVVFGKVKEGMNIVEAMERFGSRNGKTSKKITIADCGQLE

Task: Consider the molecule CCn1c(-c2cccnc2[C@H](C)OC)c2c3cc(ccc31)-c1cc(O)cc(c1)C[C@H](NC(=O)[C@H](C(C)C)N(C)C(=O)C1CC13CCNCC3)C(=O)N1CCC[C@H](N1)C(=O)OCC(C)(C)C2 (stereo partly shown) . State its measured IC50.
Result: 10 to 100 nM

Task: Consider the molecule CCn1c(-c2cccnc2[C@H](C)OC)c2c3cc(ccc31)-c1csc(n1)C[C@H](NC(=O)[C@H](C(C)C)N(C)C(=O)N1CC(C#N)C1)C(=O)N1CCC[C@H](N1)C(=O)OCC(C)(C)C2 (atropisomer, axis not shown) . State its measured IC50.
Result: 100 to 1000 nM

Task: Consider the molecule CCn1c(-c2cccnc2[C@H](C)OC)c2c3cc(ccc31)-c1csc(n1)C[C@H](NC(=O)[C@H](C(C)C)N(C)C(=O)N1CC(C(C)(C)OC)C1)C(=O)N1CCC[C@H](N1)C(=O)OCC(C)(C)C2 (atropisomer, axis not shown) . State its measured IC50.
Result: 100 to 1000 nM

Task: Consider the molecule CCn1c(-c2cccnc2[C@H](C)OC)c2c3cc(ccc31)-c1csc(n1)C[C@H](NC(=O)[C@H](C(C)C)N(C)C(=O)N1CC([C@H](C)CO)C1)C(=O)N1CCC[C@H](N1)C(=O)OCC(C)(C)C2 (atropisomer, axis not shown) . State its measured IC50.
Result: 100 to 1000 nM
